- test.method.notes: Novel Modifiers of Survival Motor Neuron (SMN) Protein: Gene Identification via Genome-wide siRNA Screen;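 note: luminescence tracks full-length SMN protein made from the SMN2 reporter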
- condition.summary: HEK293T SMN2-luciferase reporter, siRNA knockdown, 72 h; actives lie on both sides
In all, about 31,000 sequences went through this assay and about 1,400 (4.5%) were called active. Shown is part of a subset that was picked to be rich in actives.
In plain terms, low median seed-adjusted z-score, meaning strictly below -0.09, gives yes (1), and everything else gives no (0).

Solved cases (4 shown):
Hello, I'm reviewing records and need to know if median seed-adjusted z-score of GGCUUUUUGCUACAGAUGATT against OSGEP is below -0.09. Could you check?
no (0)

Take the sequence GCUGGUACCCGUCAACAAATT against ABCC10 and say whether its median seed-adjusted z-score is less than -0.09.
yes (1)

Confirm or reject: median seed-adjusted z-score of GAUGUGAAAUGGAGAAGUATT against KLF5 lies strictly below -0.09
yes (1)

Report whether reported median seed-adjusted z-score is lower than -0.09 (strictly) for AGACAGCUGCGAAUCUGGATT against MEFV
no (0)

Continuing:
Does the reported median seed-adjusted z-score of GGGCAACAGUUGAACACCATT against PDK4 stay below -0.09?
yes (1)

Find out if reported median seed-adjusted z-score for AGACGGUGACUUACAAAAATT against ARF6 is less than -0.09
yes (1)

----------
- test.method.notes: Novel Modifiers of Survival Motor Neuron (SMN) Protein: Gene Identification via Genome-wide siRNA Screen;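 note: luminescence tracks full-length SMN protein made from the SMN2 reporter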
- condition.summary: HEK293T SMN2-luciferase reporter, siRNA knockdown, 72 h; actives lie on both sides
The whole screen tested about 31,000 sequences, of which about 1,400 (4.5%) were called active.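 Rule for the calls: active = median seed-adjusted z-score above 1 or below -1; inactive = the rest.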 The entries come from a sample that favours actives as a whole.
Answer with one of the outcomes Y (active), N (inactive)

Outcome? GAUUCAUGCAUUGAUCACATT against UBE2Z
N

What was the test verdict on CAGUGUGGCUGACAACUUATT against SERTAD1 ?
N

How was GGUGCUACGUUAGACCAGUTT against SNRPA1 classified in this test?
Y

Would you mind telling me which call this test gave CAAACAUCUAUGCAGCAAATT against MS4A8B ?
N

Hey, what did the test say about GGAUAUUAGUGUCGUGCAATT against ARHGEF7 ?
N

How was GGGUCCCUAUUAUCCAGCATT against BAT3 classified in this test?
N

Status in this test for CAGACUAAACUAUAGCGAUTT against SENP6 ?
Y

Check the results log: what was the call for GAAUCGGCGAUGUACUAGATT against NT5C3 ?
N

Which outcome was entered for the sequence CCCAUAUGAUUACCCAUUUTT against MYH2 in this test?
N

In this assay, the call recorded for GGCUAACUCGAUUUAAGCATT against TIGD2 was what?
N

Now let's try a different one.
Test call for this sequence, please: CAACUGCAGCAGAUUCUAATT against MNAT1
N

----------
- test.method.notes: Novel Modifiers of Survival Motor Neuron (SMN) Protein: Gene Identification via Genome-wide siRNA Screen;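 note: luminescence tracks full-length SMN protein made from the SMN2 reporter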
- condition.summary: HEK293T SMN2-luciferase reporter, siRNA knockdown, 72 h; actives lie on both sides
The campaign covered roughly 31,000 sequences. About 1,400 (4.5%) were called active. The entries come from a sample that favours actives as a whole.
Range-based classes on measured median seed-adjusted z-score: low (below -0.7), middle (-0.7 to below -0.04), high (-0.04 or more)

Exercise: read the entry ACUUCAAGCUCCUAAGCCATT against HBA1 and state which class it falls under.
low

Determine which band this sequence sits in: GGAAGAUCGAAAGUGCGAATT against GZMB
high

Record CUAUAGAUGUGAUCAGUGUTT against ZNF32 — which class?
high

Classify this sequence: GAACAAAUCUGCGAGAUCATT against DIRAS2
low

Lab note: sort CCGUAGCAAUAGUAGGUGUTT against UBA5 into the matching median seed-adjusted z-score band.
middle

---
// bin(item) where item = GAGCGAGUCUACAAGUGUATT against REST
high

Into which bin does this sequence go? GCAGAUAUCUGAUAGCCCUTT against PPA2
middle

Assign a bin to CGCUUAAGCCUUCCAACAATT against POLR2A
low

Using the reported median seed-adjusted z-score, which band applies to CCCUGGUAGUUCCACACCATT against CRHBP ?
middle

Which median seed-adjusted z-score category applies to GAGCUGACGUGUACUCAUATT against USP5 here?
high

----------
Catalogue of sequences with associated median seed-adjusted z-score
- test.method.notes: Novel Modifiers of Survival Motor Neuron (SMN) Protein: Gene Identification via Genome-wide siRNA Screen;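 note: luminescence tracks full-length SMN protein made from the SMN2 reporter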
- condition.summary: HEK293T SMN2-luciferase reporter, siRNA knockdown, 72 h; actives lie on both sides
About 1,400 (4.5%) of roughly 31,000 sequences were called active. Many of the other results were omitted from the sample, so actives are more common in it than they were.
Answer as a number with no unit attached.

Given GCAUCACCAUCCUUCCGCATT against BACE1 , state its recorded median seed-adjusted z-score.
-0.537

Return reported median seed-adjusted z-score; argument: GAUUAUUGAGCAUAAGAUUTT against ZNF277
-0.0374

Further cases:
Item under review: CACUAGGAAUCACACCGUUTT against TINAG . Reported median seed-adjusted z-score?
0.374

May I ask what median seed-adjusted z-score has been recorded for GGAGUAAACCUCACUGACATT against TMPRSS5 ?
1.25

Need median seed-adjusted z-score, item CUACCGAGAUUUUAGAUGATT against POLE
-1.55

----------
- test.method.notes: Novel Modifiers of Survival Motor Neuron (SMN) Protein: Gene Identification via Genome-wide siRNA Screen;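 note: luminescence tracks full-length SMN protein made from the SMN2 reporter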
- condition.summary: HEK293T SMN2-luciferase reporter, siRNA knockdown, 72 h; actives lie on both sides
In all, about 31,000 sequences went through this assay and about 1,400 (4.5%) were called active. The entries come from a sample that favours actives as a whole.
Entry flag: label 1 if median seed-adjusted z-score reaches 0.04; label 0 if it does not.

Decide: median seed-adjusted z-score of UAAAGUUCUUUUAUCCAUUTT against UBE2D3 >= 0.04?
label 1

Can GAAAUAAGGUUUUUGCAAATT against CCL25 be said to have median seed-adjusted z-score at or above 0.04?
label 1

Could you please find out whether CGGAAGGACAGACAAGUAATT against SIGLEC9 has median seed-adjusted z-score that meets 0.04 or exceeds it?
label 0

Is median seed-adjusted z-score for AAGCCUACCAGGUCAAGUATT against EVI5L at or above 0.04?
label 1

API: above_or_equal(metric=median seed-adjusted z-score, cutoff=0.04) for item CGGGAACUAUCCAAACAAUTT against DMBT1
label 0

Next:
Kindly determine if median seed-adjusted z-score recorded for GCCUCACGUUUGUCAGUAUTT against WNK3 is above or exactly 0.04.
label 0

Kindly determine if median seed-adjusted z-score recorded for CCUUCAAGGUCAACGUGUATT against KCNH3 is above or exactly 0.04.
label 0

----------
- test.method.notes: Novel Modifiers of Survival Motor Neuron (SMN) Protein: Gene Identification via Genome-wide siRNA Screen;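 note: luminescence tracks full-length SMN protein made from the SMN2 reporter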
- condition.summary: HEK293T SMN2-luciferase reporter, siRNA knockdown, 72 h; actives lie on both sides
- Procedure: Spinal muscular atrophy (SMA) is the most common neuromuscular autosomal recessive disorder and one of the leading genetic causes of infant death. […] Briefly, 1 pmol of each siRNA was spotted to a well of a 384-well plate (Corning, Corning, NY) and 20 microL of serum-free DMEM containing […] of Lipofectamine RNAiMax (Life Technologies, Carlsbad, CA) was then added to each well. […] Raw luminescence reads were normalized to Ambion(R) Silencer(R) Negative Control #2 siRNA, then log10 transformed. […]
In all, about 31,000 sequences went through this assay and about 1,400 (4.5%) were called active. This is one part of a sample in which actives are shown more often than they occur.
The entries below are paired with their reported median seed-adjusted z-score.
Reply with just the number.

Record excerpt, results attached:
median seed-adjusted z-score for GACUUGAAGAUGCUAAUCATT against TIPIN ?
0

Request the reported median seed-adjusted z-score associated with UCAACUGCCCAUACACUUATT against LOC647743
-0.203

GET /values?readout=median seed-adjusted z-score&item= AGCUCCCUGCCUUUAAUAATT against CHPF
0.248

Query: median seed-adjusted z-score; subject: CAGAAGACCUGGUGCCCUATT against SPI1
0.384

Returns the measured median seed-adjusted z-score for the input sequence. Input: AGAACAACCUGGACUAUAUTT against PPP5C
0.473

Next:
Would you kindly share the measured median seed-adjusted z-score for GCGUGACAGUGAUCCUGUATT against SLC27A5 ?
0.441

----------
- test.method.notes: Novel Modifiers of Survival Motor Neuron (SMN) Protein: Gene Identification via Genome-wide siRNA Screen;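 note: luminescence tracks full-length SMN protein made from the SMN2 reporter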
- condition.summary: HEK293T SMN2-luciferase reporter, siRNA knockdown, 72 h; actives lie on both sides
Hit rate of the full screen: of about 31,000 sequences, about 1,400 (4.5%) were called active.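 Rule for the calls: active = median seed-adjusted z-score above 1 or below -1; inactive = the rest.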 Only a selection was taken, and actives are over-represented in it overall.
Hello, when you answer, please use one of the following outcomes: True = active, False = inactive

Returns: the outcome recorded for UGUUGUACCUCUAAUGUCATT against GPR172B in this assay.
False

For CCAUCGUCAACAUACGGAATT against TRIT1 , which call appears in the assay record?
False

What was the test verdict on CUCUGAACAUCAACCCGGATT against DMRTB1 ?
False

Dear all, I need the recorded test outcome for GCAGCAUAAUGAAACGUGATT against ARPM1 , thank you.
False

// param item: UCUACGCAGUGGUCACCAATT against BLK ; yields the recorded call
False

New cases:
What is the recorded call for this sequence in the test? CCACAAAGACCGUCGCUUUTT against RHOBTB2
False

// outcome(item) with item = GGAAAAACCUUCUACCUGATT against ZNF12
False

Record request — test call for GGCGAAGAGGGAUCAAGUATT against ZNF24
False

Hi, do you know how GAGUCUGAAGGAUACUAUUTT against PGAM1 came out in this test?
False

Tell me the recorded outcome of this test for GGAUACAUUAAGCUAAUAATT against PRMT3 .
False
